The reported numbers originate from ChEMBL document CHEMBL1138631.

Norepinephrine transporter (Rattus norvegicus, UniProt Q9WTR4) Ki data
Sequence (Q9WTR4 whole entry): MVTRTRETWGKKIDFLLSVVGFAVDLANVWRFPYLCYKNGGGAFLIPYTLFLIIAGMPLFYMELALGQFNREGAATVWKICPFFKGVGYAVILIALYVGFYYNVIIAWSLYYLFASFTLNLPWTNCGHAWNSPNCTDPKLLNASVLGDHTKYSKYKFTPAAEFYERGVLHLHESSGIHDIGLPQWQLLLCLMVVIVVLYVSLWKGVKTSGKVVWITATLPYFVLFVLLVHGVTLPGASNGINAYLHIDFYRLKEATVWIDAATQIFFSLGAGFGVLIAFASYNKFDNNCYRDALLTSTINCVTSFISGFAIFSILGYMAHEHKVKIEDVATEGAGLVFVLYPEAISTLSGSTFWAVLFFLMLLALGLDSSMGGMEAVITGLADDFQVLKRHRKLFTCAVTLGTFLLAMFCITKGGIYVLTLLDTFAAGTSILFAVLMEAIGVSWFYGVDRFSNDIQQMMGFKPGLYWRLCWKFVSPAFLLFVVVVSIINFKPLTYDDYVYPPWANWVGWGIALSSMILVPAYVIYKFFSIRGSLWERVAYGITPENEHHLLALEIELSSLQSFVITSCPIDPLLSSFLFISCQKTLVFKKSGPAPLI
MEASURE_NAME: Ki (nM)

{"columns": ["COMPOUND", "SYSTEM", "COMPARISON_SYMBOL", "RECORDED_VALUE"],
 "data": [
  ["CN1C2CCC1C(C(=O)NCCF)C(c1ccc(I)cc1)C2 (centres undefined)", "Norepinephrine transporter (Rattus norvegicus, UniProt Q9WTR4)", ">", 10000],
  ["COC(=O)C1C2CCC(CC1c1ccc(Br)cc1)N2 (centres undefined)", "Norepinephrine transporter (Rattus norvegicus, UniProt Q9WTR4)", "=", 1.02],
  ["O=C(OCCF)C1C(c2ccc(Br)cc2)CC2CCC1N2CCCF (centres undefined)", "Norepinephrine transporter (Rattus norvegicus, UniProt Q9WTR4)", "=", 2.03],
  ["COC(=O)C1C(c2ccc(Br)cc2)CC2CCC1N2C (centres undefined)", "Norepinephrine transporter (Rattus norvegicus, UniProt Q9WTR4)", "=", 15.3],
  ["O=C(OCCCF)C1C2CCC(CC1c1ccc(Br)cc1)N2 (centres undefined)", "Norepinephrine transporter (Rattus norvegicus, UniProt Q9WTR4)", "=", 8.85],
  ["CN1C2CCC1C(C(=O)OCCF)C(c1ccc(I)cc1)C2 (centres undefined)", "Norepinephrine transporter (Rattus norvegicus, UniProt Q9WTR4)", "=", 116],
  ["CN1C2CCC1C(C(=O)OCCF)C(c1ccc(Br)cc1)C2 (centres undefined)", "Norepinephrine transporter (Rattus norvegicus, UniProt Q9WTR4)", "=", 280],
  ["O=C(OCCF)C1C2CCC(CC1c1ccc(Br)cc1)N2 (centres undefined)", "Norepinephrine transporter (Rattus norvegicus, UniProt Q9WTR4)", "=", 15.2],
  ["CN1C2CCC1C(C(=O)OCCCF)C(c1ccc(Br)cc1)C2 (centres undefined)", "Norepinephrine transporter (Rattus norvegicus, UniProt Q9WTR4)", "=", 244]
]}
